// provenance: the supplement of paper PMC7411054

Tested on: HepG2-CANX-COX4
Test Details: phenotypically active (imaging signature differs from DMSO and reproducible) at any of 0.3-9 uM (binary (1 = active, 0 = inactive)); higher = active
Recorded Conditions: treatment time: 24 h
// classify into True for active, False for inactive

Worked cases, answers included:
1. C[C@H]1CCCC=C[C@@H]2C[C@H](O)C[C@H]2[C@H](O)C=CC(=O)O1 [brefeldin-a] | True
2. CCCCCCCCCC(=O)O[C@H]1CC[C@H]2[C@@H]3CCC4=CC(=O)CC[C@@H]4[C@H]3CC[C@]12C [nandrolone-decanoate] | False
3. C=C1[C@H]2C[C@@]3([C@@H]1O)[C@@H](C[C@@H]2O)[C@]12[C@@H]4C[C@H]3[C@H]1N(CC)C[C@]4(C)CC[C@@H]2O [Napelline] | False

Dear all, I need the recorded test outcome for C[C@H](CCC(=O)O)C[C@H](C)C[C@H](C)C(=O)/C=C(\O)[C@H](C)C[C@H](C)C/C=C/[C@@H](C)[C@@H](O)[C@@H](C)[C@@H](O)C[C@@H]1CC[C@@](C)([C@H]2CC[C@@](C)([C@@H](C)O)O2)O1 [Ionomycin free acid] , thank you.
True

Now give it for CO[C@H]1C=C2CCN(C)[C@H]2[C@@H]2c3cc4c(cc3[C@@H](O)O[C@@H]21)OCO4 [Unsevine] too.
False

Field entry: `OCC[N+]12CN3CN(CN(C3)C1)C2`
False

And then CC(C)NCC(O)c1ccc(N)c(C#N)c1 (configuration not stated) [Cimaterol] , what is it?
False

----------
System: WPMY1-GM130-SQSTM1
Test Details: phenotypically active (imaging signature differs from DMSO and reproducible) at any of 0.3-9 uM (binary (1 = active, 0 = inactive)); higher = active
Recorded Conditions: treatment time: 24 h
Could you please pick one outcome from this set? y (active), n (inactive)

Known results for compounds:
1) C[C@]12CC[C@H](O)C[C@H]1CC[C@@H]1[C@@H]2C[C@@H](O)[C@]2(C)[C@@H](C3=CC(=O)OC3)CC[C@]12O | y
2) CCOC(=O)C1(c2ccccc2)CCN(C)CC1 | n
3) O=C1C[C@@H]2OCC=C3C[N+]4([O-])CC[C@]56c7ccccc7N1[C@H]5[C@H]2[C@H]3C[C@@H]64 (stereo partly specified) | n

Per the records of this test, what outcome belongs to `C=C(C)[C@H]1CN[C@H](C(=O)O)[C@H]1CC(=O)O` ?
n

----------
System: WPMY1-TUBA1B-RELA
Test Details: phenotypically active (imaging signature differs from DMSO and reproducible) at any of 0.3-9 uM (binary (1 = active, 0 = inactive)); higher = active
Recorded Conditions: treatment time: 24 h
Property Name: phenotypically active
Give the figure only, with no unit attached.

Look over these answered cases.
1) C/C=C1\CN2CC[C@]34c5cc(OC)ccc5N5C(=O)C(O)OC[C@@H]([C@H]53)[C@H]1C[C@H]24 (stereo partly drawn) [10-Methoxy-o-demethyltsilanine] | 0
2) NC(=O)CS(=O)C(c1ccccc1)c1ccccc1 (stereo not drawn) [modafinil] | 0

Reported phenotypically active, compound CCC(=O)O[C@](Cc1ccccc1)(c1ccccc1)[C@H](C)CN(C)C [propoxyphene] : ____
0

----------
Test system: HepG2-TP53BP1-CLTA
Test Details: lowest phenotypically active concentration; higher = less potent
Recorded Conditions: treatment time: 24 h
Where a name gives a salt, the structure may show the parent alone.
Item-by-item account of lowest phenotypically active concentration
// note: answer is a bare numeric in µM

1) C=C1C/C(=C\C)C(=O)O[C@@H]2CCN3CC=C(COC(=O)[C@]1(C)O)[C@H]23 [Seneciphylline] | 9
2) O=C(NCCN1CCC2(CC1)C(=O)NCN2c1cccc(F)c1)c1ccc(F)c(F)c1 [ML 298 hydrochloride] | 9
3) CCn1cnc2c(Nc3cccc(Cl)c3)nc(N[C@H]3CCCC[C@H]3N)nc21 | 1

Lab request: please report lowest phenotypically active concentration under test system HepG2-TP53BP1-CLTA for CC(C)[C@@]1(NC(=O)[C@@H]2C[C@@H]3c4cccc5[nH]cc(c45)C[C@H]3N(C)C2)O[C@@]2(O)[C@@H]3CCCN3C(=O)[C@H](Cc3ccccc3)N2C1=O [Dihydroergocristine mesylate]
9

Entry CC(C)(C)c1cc(C=C(C#N)C#N)cc(C(C)(C)C)c1O [Malonoben] please
1

Now try COC1=CC(C)=C[C@@H](C)[C@@H](O)[C@@H](C)CC(C)=CC=C[C@H](OC)[C@@H]([C@@H](C)[C@@H](O)[C@H](C)[C@@]2(O)C[C@@H](O)[C@H](C)[C@@H](C(C)C)O2)OC1=O [Bafilomycin A1] .
9

Same lookup for CC(C)(O)[C@H]1O[C@H]2CC[C@@]3(C)[C@@](O)(CC[C@H]4Cc5c([nH]c6ccccc56)[C@@]43C)C2=CC1=O [paxilline] , please.
9

`COc1ccc(N(C(=O)Oc2c(C)cccc2C)c2ccnc(Nc3ccc(N4CCN(C)CC4)cc3)n2)c(OC)c1` ?
1

Query CN1C[C@H](C(=O)N[C@]2(C)O[C@@]3(O)[C@@H]4CCCN4C(=O)[C@H](Cc4ccccc4)N3C2=O)C=C2c3cccc4[nH]cc(c34)C[C@H]21 [ergotamine] next
3

----------
System: A549-TUBA1B-RELA
Test Details: phenotypically active (imaging signature differs from DMSO and reproducible) at any of 0.3-9 uM (binary (1 = active, 0 = inactive)); higher = active
Recorded Conditions: treatment time: 24 h
Hello, when you answer, please use one of the following outcomes: true (1) for active, false (0) for inactive

1. CCCN1C[C@H](CSC)C[C@@H]2c3cccc4[nH]cc(c34)C[C@H]21 [pergolide] | false (0)

# outcome recorded in this test, key = CCCCCC[C@H]1C(=O)O[C@H](C)[C@H](NC(=O)c2cccc(NC=O)c2O)C(=O)O[C@@H](C)[C@@H]1OC(=O)CC(C)C [antimycin a]
true (1)

Try this compound too: Cc1cc2c(C(C)C)c(O)c(O)c(C=O)c2c(O)c1-c1c(C)cc2c(C(C)C)c(O)c(O)c(C=O)c2c1O [gossypol]
true (1)

Input CCOc1cc(C=O)ccc1O [Ethylvanilline]
false (0)

What about BrC1C(Br)C(Br)C(Br)C(Br)C1Br (centres undefined) [1,2,3,4,5,6-Hexabromocyclohexane] ?
false (0)

Proceed to O=C1CCC[C@@H]2[C@H]3CCCN4CCC[C@@H](CN12)[C@@H]34 [Matrine]
false (0)

# iterate: CN1C[C@H](C(=O)N[C@]2(C)O[C@@]3(O)[C@@H]4CCCN4C(=O)[C@H](Cc4ccccc4)N3C2=O)C[C@@H]2c3cccc4[nH]cc(c34)C[C@H]21.CN1C[C@H](C(=O)N[C@]2(C)O[C@@]3(O)[C@@H]4CCCN4C(=O)[C@H](Cc4ccccc4)N3C2=O)C[C@@H]2c3cccc4[nH]cc(c34)C[C@H]21 [dihydroergotamine]
true (1)

Would you kindly repeat that for C[C@@H]1O[C@H](C[N+](C)(C)C)C[C@H]1O [(+)-Muscarine iodide] ?
false (0)

Same question for O=c1[nH]c2ccccc2n1C1CCN(CCCC(c2ccc(F)cc2)c2ccc(F)cc2)CC1 [pimozide] please.
true (1)

Also, CC(C)(O)[C@H]1O[C@H]2CC[C@@]3(C)[C@@](O)(CC[C@H]4Cc5c([nH]c6ccccc56)[C@@]43C)C2=CC1=O [paxilline] please.
false (0)

For C=C[C@]12CN(C)[C@@H]3[C@H]4CO[C@H](C[C@H]41)[C@]1(C(=O)Nc4ccccc41)[C@@H]32 [Gelsemine] then?
false (0)

Do the same for CCN(C)C(=O)Oc1cccc([C@H](C)N(C)C)c1 [rivastigmine] please
false (0)

Try NC(=O)CS(=O)C(c1ccccc1)c1ccccc1 (centres undefined) [modafinil] next.
false (0)

Same read-out for CC(C)C[C@H](CN)CC(=O)O [pregabalin] ?
false (0)

----------
Tested on: A549-TUBA1B-RELA
Test Details: phenotypically active (imaging signature differs from DMSO and reproducible) at any of 0.3-9 uM (binary (1 = active, 0 = inactive)); higher = active
Recorded Conditions: treatment time: 24 h
Give one outcome, nothing more. List: active, inactive

Illustrative cases are given below, each with its answer.
1) C#CCN(C)[C@H](C)Cc1ccccc1 [selegiline] | inactive
2) C[C@H]1O[C@@H](O[C@H]2[C@@H](O)C[C@H](O[C@H]3[C@@H](O)C[C@H](O[C@H]4CC[C@@]5(C)[C@H](CC[C@@H]6[C@@H]5CC[C@]5(C)[C@@H](C7=CC(=O)OC7)[C@@H](O)C[C@]65O)C4)O[C@@H]3C)O[C@@H]2C)C[C@H](O)[C@@H]1O [Gitoxin] | active

What did the test return for `Cc1sc2c(c1C)C(c1ccc(Cl)cc1)=N[C@@H](CC(=O)OC(C)(C)C)c1nnc(C)n1-2` ?
active

What about this compound? `COC(=O)[C@@]1(O)C[C@H]2O[C@]1(C)n1c3ccccc3c3c4c(c5c6ccccc6n2c5c31)C(=O)NC4`
active

Record: COc1ccc2c3c1O[C@H]1C(=O)CC[C@H]4[C@@H](C2)N(C)CC[C@]314 [hydrocodone]
inactive
